Test: endothelial E-selectin expression blockers – imaging, HUVEC, immunofluorescence, MLSMR starter and 10KST1 sets, primary screen (AID 487);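 note: signal is fraction of cell area covered by stained E-selectin grains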
Conditions: HUVEC TNFalpha-induced E-selectin immunofluorescence imaging, at 2 µM; stronger effect = higher value
recorded metric: inhibition (%)
Dear colleague, please return just the value in %, with no unit written.

Take a look at these entries with their results.
CC(C)CCNC(=O)NC(=O)CSc1nnc(-c2ccccc2F)n1N : -223
CCOC(=O)Nc1sc(=S)n(C)c1C : 15.9
CC(=O)Nc1ccc(S(=O)(=O)N2CCN(Cc3ccncc3)CC2)cc1 : -26.1
COc1ccc2c(c1OC)C(=O)OC2Nn1cncn1 (stereo unspecified) : 1.1
Cc1ccc(NC(=O)Nc2ccc3c(c2)N(C)C(=O)CS3)nc1 : -45

Let's switch to this molecule now.
Task item: Quickly give me recorded inhibition for `CCOC(=O)c1[nH]c(C)c(C(=O)Nc2cc(OC)ccc2OC)c1C`
Reply: -153

* * *

Test: endothelial E-selectin expression blockers – imaging, HUVEC, immunofluorescence, MLSMR starter and 10KST1 sets, primary screen (AID 487);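 note: signal is fraction of cell area covered by stained E-selectin grains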
Settings: HUVEC TNFalpha-induced E-selectin immunofluorescence imaging, at 2 µM; stronger effect = higher value
The source made the active and inactive calls.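 Rule for the calls: active = visually confirmed hit in the image check and inhibition above 20%; inconclusive = visually confirmed hit but inhibition not above 20%; inactive = no visual hit in the image check.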
Listed here are compounds together with their documented inhibition.

Take a look at these entries with their results.
O=C(c1cnsn1)N1CCN(c2ccccn2)CC1 : 1.4% (inactive)
COc1ccccc1-c1ccc(Nc2cccc(C(C)=O)c2)nn1 : 0.3% (inactive)
CCOC(=O)CCCn1nc(C)n2c(cc3sccc32)c1=O : -28.3% (inactive)
COc1ccc(-n2c(SCCC(=O)O)nnc2-c2ccncc2)cc1 : -27.4% (inactive)

Task item: Quickly give me recorded inhibition for `Cn1c(=O)c(-c2ccccc2)nn2c3ccccc3nc12`
Reply: -79.5% (inactive)

Task item: Quickly give me recorded inhibition for `Cc1nnc(SCc2cnc(-c3ccccc3)o2)[nH]c1=O`
Reply: -82.5% (inactive)

Task item: Quickly give me recorded inhibition for `Cc1cccc(OCC(=O)NCC(=O)n2nc(C)cc2C)c1`
Reply: -106% (inactive)

Task item: Quickly give me recorded inhibition for `O=C(Nc1cccc2c1CCCC2)C1CCN(c2nnnn2-c2ccccc2)CC1`
Reply: -20.6% (inactive)

Task item: Quickly give me recorded inhibition for `Cc1ccc(S(=O)(=O)N(C)CC(=O)NC2CCCC2)cc1`
Reply: -98.8% (inactive)

Task item: Quickly give me recorded inhibition for `COCCn1c(NCc2ccc(C)cc2)nc2c1c(=O)[nH]c(=O)n2C`
Reply: 9.9% (inactive)

Task item: Quickly give me recorded inhibition for `CN(CCC#N)C(=O)COC(=O)c1ccc(Cl)c(S(N)(=O)=O)c1`
Reply: -96.3% (inactive)

Task item: Quickly give me recorded inhibition for CCOC(=O)C1=C(C)Nc2ncnn2C1c1ccccc1F (stereo not drawn)
Reply: -49.3% (inactive)

Task item: Quickly give me recorded inhibition for `O=C(Cn1c(=O)[nH]c2ccsc2c1=O)NC1CCCCCC1`
Reply: 13.2% (inactive)

Task item: Quickly give me recorded inhibition for `COc1ccc(Cl)cc1NC(=O)c1oc(C)nc1C`
Reply: -1% (inactive)

Task item: Quickly give me recorded inhibition for C=CCNc1nc(C2(C)CC3(CC(C)(C)OC3=O)C(=O)O2)cs1 (stereo not drawn)
Reply: -142% (inactive)

Task item: Quickly give me recorded inhibition for `Cc1ccc(C(=O)Nc2nc3c(s2)CCCC3)o1`
Reply: -96.9% (inactive)

Task item: Quickly give me recorded inhibition for `O=C1CNCc2[nH]c3ccccc3c2N1c1ccccc1`
Reply: -124% (inactive)

Task item: Quickly give me recorded inhibition for `COc1ccc(OC)c(N(CC(=O)N2CCN(c3cc(Cl)ccc3C)CC2)S(C)(=O)=O)c1`
Reply: -13.6% (inactive)

Task item: Quickly give me recorded inhibition for `CCn1cc(C(=O)NCCN(C)CCc2ccccc2)c(=O)c2cc(S(=O)(=O)N(C)C)ccc21`
Reply: -10.5% (inactive)

Task item: Quickly give me recorded inhibition for `COc1ccc2cnn(-c3ccccc3)c(=O)c2c1OC`
Reply: 35.5% (inactive)

* * *

Molecular target: Voltage-gated potassium channel subunit beta-2 (Rattus norvegicus)
Assay: inhibitors of rat Kvbeta2 reductase activity – biochemical, NADPH fluorescence, primary screen (AID 622);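 note: slope of raw intensity against log time taken from 70 to 1610 s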
Conditions: recombinant KvBeta, 4-cyanobenzaldehyde reduction, at 10 µM, stronger effect = higher value
Listed here are compounds together with their documented fluorescence slope.
Lab note: record just the number, no unit beside it.

Take a look at these entries with their results.
CC1Oc2ccccc2N(CC(=O)N(Cc2ccccc2)Cc2ccccn2)C1=O (stereo not given) : -0.297
O=C(CCCn1c(=O)c2sccc2n(CC(=O)NCc2ccco2)c1=O)NCc1ccco1 : -0.567
CC(=O)N1CCc2cc(S(=O)(=O)CCC(=O)N3CCN(C(=O)c4ccco4)CC3)ccc21 : -0.413
CN1CCCN(C(=O)c2cc(=O)[nH]c3ccccc23)c2nc3ccccc3nc21 : -0.394

Let's switch to this compound now.
Task item: Quickly give me recorded fluorescence slope for `COc1ccccc1CNS(=O)(=O)c1cccc(S(=O)(=O)N2CCOCC2)c1`
Reply: -0.401

* * *

Listed here are compounds together with their documented nuclei count.
Assay: reduction of polyQ htt aggregates in cells – imaging, exon1htt(103Q)mCFP cells, high-content imaging, primary screen (AID 483);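 note: compound exposure lasted 3 days before fixation; percent of the per-plate median nuclei count of sample wells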
Settings: exon1htt(103Q)mCFP cell line, aggregate imaging, at 2 µM; measured here: cell count, toxicity
Dear colleague, please return just the value in %, with no unit written.

Cc1ccc(NCc2nnc(SCC(=O)N3CCCCC3)n2CC2CCCO2)c(C)c1 (stereo unspecified) : 95.1
CC(=O)Nc1c(Cl)n(C(C)=O)c2ccccc12 : 100
O=C(CNS(=O)(=O)c1ccc(Br)s1)N1CCN(c2ncccn2)CC1 : 101

Task item: Quickly give me recorded nuclei count for `CCOC(=O)C1CCN(C(=O)Nc2ccc3snnc3c2)CC1`
Reply: 89.8

Task item: Quickly give me recorded nuclei count for `COC(=O)Nc1ccc(C)cc1NC(=O)OC`
Reply: 98.6

Task item: Quickly give me recorded nuclei count for `CC(C)(C)n1nc2c(c1NC(=O)COc1ccc(Cl)cc1)CSC2`
Reply: 93.1

* * *

Molecular target: Voltage-gated potassium channel subunit beta-2 (Rattus norvegicus)
Assay: enhancers of rat Kvbeta2 NADPH turnover – biochemical, NADPH fluorescence, primary screen (AID 623);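 note: fluorescence intensity change per second fitted from 20 to 320 s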
Details: Recombinant KvBeta, NADPH fluorescence decrease slope, 10 min; at 10 µM; stronger effect = lower value
Listed here are molecules together with their documented NADPH fluorescence slope.
Lab note: record just the number, no unit beside it.

Take a look at these entries with their results.
COCC(=O)N(Cc1nc2ccccc2c(=O)[nH]1)Cc1cccs1 : -3e-05
Cc1ccccc1NC(=O)c1ccccc1 : 2.1e-05
c1ccc2[nH]c(CSc3nnc(-c4ccncc4)o3)nc2c1 : 1e-06
CCOC(=O)C(NC(=O)C1CCCN1C(=O)OCc1ccccc1)C(=O)OCC (stereo unspecified) : -1.7e-05
CN1CCCC(OC(=O)COc2ccc(Br)cc2)C1 (stereo unspecified) : 0.000124

Let's switch to this molecule now.
Task item: Quickly give me recorded NADPH fluorescence slope for COc1cc(C2C(C#N)=C(N)Oc3cc(N)ccc32)cc(OC)c1OC (stereo unspecified)
Reply: 1e-06

* * *

Biological target: Voltage-gated potassium channel subunit beta-2 (Rattus norvegicus) (UniProt P62483)
Sequence (P62483 whole entry, looked up): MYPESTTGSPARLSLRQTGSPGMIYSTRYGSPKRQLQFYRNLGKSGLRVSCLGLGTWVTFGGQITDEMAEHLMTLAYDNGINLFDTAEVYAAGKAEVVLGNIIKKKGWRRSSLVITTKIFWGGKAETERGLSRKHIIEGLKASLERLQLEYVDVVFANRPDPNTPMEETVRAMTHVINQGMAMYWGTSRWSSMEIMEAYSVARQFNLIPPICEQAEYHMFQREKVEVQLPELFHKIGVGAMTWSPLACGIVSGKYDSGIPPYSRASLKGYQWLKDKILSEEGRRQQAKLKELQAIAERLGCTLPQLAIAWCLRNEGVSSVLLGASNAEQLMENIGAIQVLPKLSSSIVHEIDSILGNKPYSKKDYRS
Experiment: enhancers of rat Kvbeta2 NADPH turnover – biochemical, NADPH fluorescence, primary screen (AID 623);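 note: fluorescence intensity change per second fitted from 20 to 320 s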
Conditions: Recombinant KvBeta, NADPH fluorescence decrease slope, 10 min; at 10 µM; stronger effect = lower value
Calls of active or inactive are those of the source.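 How the source made its calls: active means NADPH fluorescence slope more negative than the mean of all samples by about 3 SD, 99.7% confidence; inactive means the rest.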
recorded metric: NADPH fluorescence slope

Take a look at these entries with their results.
Nc1nc(CN2CCOCC2)cs1 : -2.3e-05 (inactive)
COc1cccc(C2C(C#N)=C(N)OC3=C2C(=O)CCC3)c1OC(=O)c1ccco1 (stereo unspecified) : -3.8e-05 (inactive)
CCOc1ccccc1NC(=O)C1CCCN(C(=O)NCc2ccccc2)C1 (stereo unspecified) : 8e-05 (inactive)
COc1ccc(CCN(C)CCCC(C#N)(c2ccc(OC)c(OC)c2)C(C)C)cc1OC (stereo unspecified) : -2.2e-05 (inactive)
Cc1cc(NC(=O)c2cnn3cccnc23)no1 : -4.3e-05 (inactive)

Task item: Quickly give me recorded NADPH fluorescence slope for CCOC(=O)N1CCC(NC(=O)C2CCCN2C(=O)OCc2ccccc2)CC1 (stereo unspecified)
Reply: -1.3e-05 (inactive)

Task item: Quickly give me recorded NADPH fluorescence slope for `Cc1noc(C)c1S(=O)(=O)NCCN1CCN(c2ccccc2)CC1`
Reply: 4.8e-05 (inactive)

Task item: Quickly give me recorded NADPH fluorescence slope for `CC1(C)CC(=O)C(C=NCCc2ccc(S(N)(=O)=O)cc2)=C(O)C1`
Reply: -8.3e-05 (inactive)

Task item: Quickly give me recorded NADPH fluorescence slope for `C/C(=C\c1cc(C(=O)O)c(C)o1)CO`
Reply: -0.00049 (inactive)

Task item: Quickly give me recorded NADPH fluorescence slope for `O=C(CSc1ccc(Cl)cc1)OCc1nnc(-c2ccccc2)o1`
Reply: 6.8e-05 (inactive)

Task item: Quickly give me recorded NADPH fluorescence slope for `CCOC(=O)N1CCN(C(=O)Nc2ccc3oc(C)nc3c2)CC1`
Reply: 1.5e-05 (inactive)
